System: KM12 colon
Test: NCI tumour cell line growth inhibition, 48 h
resultType: TGI

Nc1ncnc2c1ncn2C1OC(CO)C(O)C1O (stereo unspecified)    > 450 µM
O=c1[nH]c(=O)n(COCCO)cc1-c1ccccc1    > 100 µM
C=C1CN(C(=O)c2cc3cc(OC)c(OC)c(OC)c3[nH]2)c2cc([N+](=O)[O-])ccc21    > 100 µM

Here's the next entry for you.
What does the data say about its TGI? Entry: COC(=O)CC[C@@H](NC(=O)C(C)NC(=O)COC1C(O)C(COC(=O)CCCCCCCCCCNC(=O)c2ccc([N+](=O)[O-])c3[nH]c4cc(Br)ccc4c(=O)c23)OC(OCc2ccccc2)C1NC(C)=O)C(N)=O (stereo partly specified)
> 100 µM
